# system: APOL1 (Homo sapiens, UniProt O14791)
# Sequence (O14791 1-398 S342G/I384M): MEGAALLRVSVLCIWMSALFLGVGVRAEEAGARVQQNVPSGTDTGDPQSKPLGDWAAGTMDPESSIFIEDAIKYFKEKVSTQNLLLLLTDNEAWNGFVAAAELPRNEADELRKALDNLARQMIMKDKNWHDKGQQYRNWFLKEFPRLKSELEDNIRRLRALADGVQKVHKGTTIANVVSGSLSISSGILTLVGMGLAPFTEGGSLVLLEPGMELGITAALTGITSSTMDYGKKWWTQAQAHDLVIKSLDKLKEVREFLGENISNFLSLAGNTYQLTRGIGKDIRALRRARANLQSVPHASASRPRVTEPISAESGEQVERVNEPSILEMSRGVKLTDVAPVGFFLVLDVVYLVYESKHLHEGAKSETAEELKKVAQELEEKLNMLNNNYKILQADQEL
# assay_summary: Multi-Tox Assay (MultiTox-Fluor Multiplex Cytotoxicity Assay in tet-inducible APOL1 T-REx-HEK293 cells; Table 46 does not say which APOL1 variant G0/G1/G2)
# assay_setup: IP50 = IC50 for cell proliferation, APOL1 variant not given
Some molecules, each annotated with its measured IC50.

{"molecule": "C[C@H]1C[C@@]2(C[C@@H](c3cn(Cc4cnccn4)nn3)N1)OCC(F)(F)c1cc(Cl)sc12", "system": "APOL1 (Homo sapiens, UniProt O14791)", "value_kind": "IC50", "endpoint_result": "50 to 500 nM"}

Query string: Output measured IC50 for this item: CCc1c[nH]c([C@@H]2C[C@]3(C[C@H](C)N2)OCCc2cc(Cl)sc23)n1 (racemic)
Result string: 50 to 500 nM

Query string: Look up and report measured IC50 for this entry: C[C@H]1C[C@@]2(C[C@@H](c3cn(C)nn3)N1)OCCc1sc(C(F)(F)F)cc12
Result string: < 50 nM

Query string: // Input: CC1CC2(CC(C3CC3)N1)OCCc1cc(Cl)sc12 (mixture of isomers) [Compound 217] . Output its IC50 only.
Result string: < 50 nM

----------
# system: APOL1 G1 (Homo sapiens, UniProt O14791, I384M/S342G)
# Sequence (O14791 28-398 S342G/I384M): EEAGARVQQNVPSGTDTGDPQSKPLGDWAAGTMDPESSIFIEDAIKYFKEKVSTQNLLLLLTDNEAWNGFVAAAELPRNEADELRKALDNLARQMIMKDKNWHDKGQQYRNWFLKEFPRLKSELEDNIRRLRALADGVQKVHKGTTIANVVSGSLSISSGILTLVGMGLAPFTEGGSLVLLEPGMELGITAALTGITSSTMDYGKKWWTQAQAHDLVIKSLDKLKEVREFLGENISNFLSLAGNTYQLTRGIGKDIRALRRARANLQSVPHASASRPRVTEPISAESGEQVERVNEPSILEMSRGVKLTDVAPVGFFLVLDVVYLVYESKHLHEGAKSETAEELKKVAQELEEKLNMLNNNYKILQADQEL
# assay_summary: Trypanosoma brucei brucei Lysis Assay Using APOL1 Recombinant Protein (AlamarBlue viability readout)
# Assay type: cell-based
# assay_setup: Trypanosome Assay; read-out: Trypanosome Assay Max Activity (%)
value_kind: Emax (%)
// note: answer is a bare numeric in %

Consider the following illustrative entries.
{"compound": "C[C@H]1C[C@@]2(C[C@@H](CC3CCOCC3)N1)OCCc1cc(Cl)sc12", "endpoint_result": 71}
{"compound": "C[C@H]1C[C@@]2(C[C@@H](c3cccc(=O)[nH]3)N1)OCCc1cc(Cl)sc12 (racemic)", "endpoint_result": 85.7}
{"compound": "Cc1cc2c(s1)C1(C[C@@H](c3cn(C)nn3)N[C@@H](C)C1)OCC2 (stereo in doubt)", "endpoint_result": 107}

Query string: Indicate its recorded Emax; the compound in question is CCC1CC2(CC(c3cn(C)nn3)N1)OCCc1cc(Cl)sc12 (stereo not drawn)
Result string: 104

Query string: Provide one value: measured Emax of Cc1nn(CCO)cc1[C@@H]1C[C@]2(C[C@H](C)N1)OCCc1cc(Cl)sc12 (racemic)
Result string: 75.5

Query string: Please report the measured Emax for C[C@H]1C[C@@]2(C[C@@H](c3cnc(N(C)C)nc3)N1)OCCc1cc(Cl)sc12 (racemic)
Result string: 105

Query string: Tell me measured Emax for C[C@H]1C[C@@]2(C[C@@H](c3cnc(N)nc3)N1)OCCc1cc(Cl)sc12 (racemic) please.
Result string: 105

Query string: Read off the recorded Emax for C[C@H]1C[C@@]2(C[C@@H](c3ccc(N(C)C)nc3)N1)OCCc1cc(Cl)sc12 (racemic)
Result string: 101

Query string: Assign Emax to the following record: Cc1noc2cc([C@@H]3C[C@]4(C[C@H](C)N3)OCCc3cc(Cl)sc34)ccc12 (racemic)
Result string: 109

Query string: Respond only with Emax recorded for Cc1nccc([C@@H]2C[C@]3(C[C@H](C)N2)OCCc2cc(Cl)sc23)n1 (racemic)
Result string: 101

Query string: For the compound CCc1cc2c(s1)CCOC21C[C@@H](c2cn(C)nn2)N[C@@H](C)C1 (stereo in doubt) , give its measured Emax value.
Result string: 118

Query string: Specify reported Emax for the compound shown: COCCn1cc([C@@H]2C[C@]3(C[C@H](C)N2)OCCc2cc(Cl)sc23)cn1 (racemic)
Result string: 104
